Recorded values, source patent US6110962A.

Provide the reported change in vivo at 100 mg/kg of each item.
# System: diabetic (ob/ob) mice
# experimentalProtocol: Blood glucose lowering activity in diabetic (ob/ob) mice
# Format: in vivo, mouse
# studyConditions: Mus musculus, po, 96 h, ob/ob mice, dose 100 mg/Kg, plasma glucose Day 4, 7 or 14; read-out: % Change Glucose from Vehicle
Express it in %; write the number only.

Query: Field request: change in vivo at 100 mg/kg | item: O=C(O)C(Cc1c[nH]c2ccccc12)Oc1c(Br)cc(-c2c3ccccc3c(Br)c3sc4ccccc4c23)cc1Br (racemic)
Result: -28.1

Query: Entry O=C(O)[C@@H](Cc1ccccc1)Oc1ccc(-c2c3ccccc3cc3sc4ccccc4c23)cc1 please
Result: -14.5

Query: How about this compound: O=C(O)[C@@H](CCN1C(=O)c2ccccc2C1=O)Oc1c(Br)cc(-c2c3ccccc3cc3sc4ccccc4c23)cc1Br
Result: -45.8

Query: Try Brc1cc(-c2c3ccccc3c(Br)c3sc4ccccc4c23)cc(Br)c1O[C@H](Cc1ccccc1)c1nnn[nH]1 next.
Result: 5.62

Query: What about O=C(O)COc1c(Br)cc(-c2c3ccccc3c(Br)c3oc4ccccc4c23)cc1Br ?
Result: -39.4

Query: Try CC1(COc2ccc(CC3SC(=O)NC3=O)cc2)CCCCC1 (stereo not shown) [Ciglitazone, reference compound] next.
Result: -43

Query: Now the compound O=C(O)[C@@H](Cc1ccccc1)Oc1c(F)ccc(-c2c3ccccc3c(Br)c3sc4ccccc4c23)c1F
Result: -16.1

* * *

# Test system: rat hepatic microsomal PTPases
# studyConditions: PTPase activity, compound at 50 μM
Counter-ions that a name gives are not always drawn.
The class of a record is decided solely by its measured % Change from Control; consult bottom bin: < -60%; middle bin: ≥ -60% and < -30%; top bin: ≥ -30%

Query: Which % Change from Control band matches COc1ccc(-c2c3ccccc3cc3sc4ccccc4c23)cc1 [Example 23] ?
Result: top bin

Query: Would you kindly repeat that for N#Cc1c2ccccc2c(-c2cc(Br)c(O)c(Br)c2)c2c1sc1ccccc12 [Example 58] ?
Result: middle bin

Query: # iterate: O=C(O)[C@@H](Cc1c[nH]cn1)Oc1c(Br)cc(-c2c3ccccc3c(Br)c3sc4ccccc4c23)cc1Br [Example 120, hydrochloride]
Result: top bin

Query: Now give it for N#Cc1cc(-c2c3ccccc3cc3sc4ccccc4c23)ccc1OCC(=O)O [Example 82] too.
Result: middle bin

Query: Note, next up: O=C(O)COc1cc(-c2c3ccccc3c(Br)c3sc4ccccc4c23)c(Br)cc1Br [Example 92]
Result: bottom bin

Query: Okay, and CC(=O)Oc1ccc(-c2c3ccccc3cc3sc4ccccc4c23)cc1 [Example 34] ?
Result: top bin

Query: // repeat for Oc1cc(Br)c(-c2c3ccccc3c(Br)c3sc4ccccc4c23)cc1O [Example 71] and report
Result: middle bin

Query: Repeat for the following compound: COc1c(Br)cc(-c2c3ccccc3c(Br)c3sc4ccccc4c23)cc1O[C@H](Cc1ccccc1)C(=O)O [Example 196]
Result: bottom bin

Query: Similarly, Oc1ccc(-c2c3ccccc3cc3sc4ccccc4c23)cc1O [Example 18] ?
Result: top bin

Query: What about this compound? O=C(O)[C@@H](Cc1ccccc1)Oc1c(F)ccc(-c2c3ccccc3c(Br)c3sc4ccccc4c23)c1F [Example 203]
Result: bottom bin

Query: # iterate: Oc1ccc(-c2c3ccccc3cc3sc4cc(O)ccc4c23)cc1 [Example 15]
Result: middle bin

Query: Same read-out for Brc1cc(-c2c3ccccc3c(Br)c3sc4ccccc4c23)cc(Br)c1OCc1nnn[nH]1 [Example 171] ?
Result: bottom bin

Query: And the next one, O=C(O)[C@@H](Cc1ccccc1)Oc1ccc(-c2c3ccccc3cc3sc4ccccc4c23)cc1 [Example 117] ?
Result: bottom bin

Query: Input O=C(O)COc1ccc(-c2c3ccccc3c(Br)c3sc4ccccc4c23)cc1 [Example 87]
Result: bottom bin

Query: Same question, O=C(O)COc1ccc(-c2c3ccc(OCC(=O)O)cc3cc3sc4ccccc4c23)cc1 [Example 76] this time
Result: top bin

Query: Also N#Cc1cc(-c2c3ccccc3cc3sc4ccccc4c23)cc(C#N)c1OCC(=O)O [Example 81] , if possible.
Result: middle bin

Query: Okay, and N#CCCNC(=O)[C@@H](Cc1ccccc1)Oc1c(Br)cc(-c2c3ccccc3c(Br)c3sc4ccccc4c23)cc1Br [Example 168] ?
Result: top bin

Query: What do you get for Oc1ccc(-c2c3ccccc3c(Br)c3sc4ccccc4c23)cc1O [Example 43] ?
Result: top bin

Query: Next compound: NC(=O)COc1c(Br)cc(-c2c3ccccc3c(Br)c3sc4ccccc4c23)cc1Br [Example 165]
Result: top bin

Query: Also O=C(O)COc1cc(-c2c3ccccc3c(Br)c3sc4ccccc4c23)cc(Br)c1OCC(=O)O [Example 94] ?
Result: bottom bin

Query: Follow-up item: O=C(O)[C@@H](Cc1ccccc1)Oc1c(I)cc(-c2c3ccccc3cc3sc4ccccc4c23)cc1I [Example 131]
Result: bottom bin

Query: Also O=C(O)[C@@H](CCN1Cc2ccccc2C1=O)Oc1c(Br)cc(-c2c3ccccc3c(Br)c3sc4ccccc4c23)cc1Br [Example 124] ?
Result: bottom bin

* * *

# System: rat hepatic microsomal PTPases
# studyConditions: PTPase activity, compound at 50 μM
measureName: % Change from Control

Query: // query % Change from Control value for entry C[C@@H](Oc1c(Br)cc(-c2c3ccccc3c(I)c3sc4ccccc4c23)cc1Br)C(=O)O
Result: -59.75%

Query: Now the compound COc1c(O)cc(-c2c3ccccc3c(Br)c3sc4ccccc4c23)cc1Br
Result: -29.34%

Query: Let us now turn to O=C(O)COc1ccc(-c2c3ccccc3c(Br)c3sc4ccccc4c23)cc1OCC(=O)O
Result: -58.35%
